SUBJECT OF TEST: HLA-A*24 MHC class I molecule (peptide-receptive after UV-ligand exchange) (human)
METHOD: UV-ligand exchange, anti-b2m ELISA; grade of peptide exchange yield (>=10% = +; >=20% = ++; >=50 = +++; >=75% = ++++)
MEASURED ENDPOINT: peptide exchange yield

# example entries with known answers
LFHPEDTGQVF [peptide … (SEQ ID No. 56)] = 20 to 50%
YYAKEIHKF [peptide … (SEQ ID No. 28)] = > 75%
TYIGQGYII [peptide … (SEQ ID No. 42)] = 50 to 75%
RYLQKIEEF [peptide … (SEQ ID No. 41)] = 50 to 75%
PYQLNASLFTF [peptide … (SEQ ID No. 32)] = > 75%
VYNTVSEGTHF [peptide … (SEQ ID No. 44)] = 50 to 75%
SYTPVLNQF [peptide … (SEQ ID No. 47)] = > 75%
AWAPKPYHKF [peptide … (SEQ ID No. 48)] = 50 to 75%
IYEPYLAMF [peptide … (SEQ ID No. 25)] = 50 to 75%
IYPDVTYAF [peptide … (SEQ ID No. 59)] = 50 to 75%

What the record says about GYIDKVRQL [peptide … (SEQ ID No. 58)] : peptide exchange yield is 20 to 50%

What the record says about AYIKNGQLF [peptide … (SEQ ID No. 43)] : peptide exchange yield is 50 to 75%

What the record says about RYMWINQEL [peptide … (SEQ ID No. 36)] : peptide exchange yield is 50 to 75%
